Target: Glucose transporter (Leishmania mexicana)
Experiment: ST_JUDE_LEISH: Cytotoxicity at 2uM final concentration against transgenic Leishmania Mexicana promastigotes LmGT2 that are glucose transport deficient and complemented with the L. Mexicana glucose transporter 2. Activity is measured by DNA content using SYBR green in vitro
Format: functional
Below is a list of entries, each paired with its recorded inhibition value.
attribute-measured: inhibition (%)

In [3]: df
Out[3]:
                                   compound  units_label  reported_measurement
0            Clc1ncnc2ncn(Cc3cccc(Br)c3)c12            %                  10.8
1  CN1CCc2cc(I)c(O)cc2C1Cc1ccccc1Cl (stereo not given)            %                  2.59
2  O=C(O[C@@H]1CN[C@H](C#Cc2cc3c(Nc4ccc5c(cnn5Cc5ccccc5)c4)ncnc3s2)C1)N1CCCC1            %                 -0.78
3  CCOc1cc(C=NNc2nc(C)cc(-n3nc(C)cc3C)n2)ccc1O            %                  3.45
4          CNCCCNCc1ccc(-c2ccc(F)c(Cl)c2)o1            %                  0.56
5  FC(F)(F)c1ccc2[nH]c(-c3ccc(-c4ccc(CN5CCN(c6ccncc6)CC5)cc4)s3)nc2c1            %                 -2.12
6  CCOc1cc(C)ccc1C1CCN(CCCCNC(=O)c2ccc(-c3ccc(C(F)(F)F)cn3)cc2)CC1            %                  7.82
7  Cc1ccc(-n2c(C)cc(C(=O)CN3C(=O)NC(Cc4ccccc4)C3=O)c2C)cc1 (stereo not given)            %                  0.55
8  CCN(CC)CCN(Cc1ccc(-c2ccc(C(F)(F)F)cc2)cc1)C(=O)Cn1c(CCc2ccc(F)cc2)nc(=O)c2ccccc21            %                  3.33
9    CCN(Cc1ccccc1)C1CCN(Cc2cc(Br)ccc2O)CC1            %                  2.71

Where do these numbers come from? They come from ChEMBL document CHEMBL3433997.
